# experimental.system: Neuropilin-1 (Homo sapiens)
# assay.protocol: blockers of CendR peptide binding to NRP-1 – biochemical, FP and AlphaScreen panel, dose response (AID 651650)
# condition.details: NRP-1 b1b2 / RPARPAR peptide binding, FP or AlphaScreen; run 1, at 100 µM (top of the series)
Classification field: Criterion met = inhibition at or over 30%; Criterion not met = inhibition under 30%.

molecule | assigned.label
CCOC(=O)C1(O)CC(C)=NN1C(=O)c1cccc(Br)c1 (stereo unspecified) | Criterion met
Cc1ccccc1-n1ncc2c1CC(C)(C)CC2NC(=O)c1ccncc1 (stereo unspecified) | Criterion not met

Exercise: Is the recorded value of inhibition equal to or greater than 30% for this molecule? COc1ccc(/C=N/NC(=O)c2ccccc2Cl)cc1CSc1nc2ccccc2s1
Key: Criterion not met

Exercise: Is the recorded value of inhibition equal to or greater than 30% for this molecule? C=C1C[C@@]23CCC4[C@@](C)(CCC[C@@]4(C)C(=O)O)C2CC[C@]1(O)C3 (stereo partly specified)
Key: Criterion met

Exercise: Is the recorded value of inhibition equal to or greater than 30% for this molecule? c1ccc2c(c1)CCCN2Cc1nnnn1CC1CCCO1 (stereo unspecified)
Key: Criterion met

Exercise: Is the recorded value of inhibition equal to or greater than 30% for this molecule? C=CCN(CC=C)C(=O)C1CC(=O)N(c2ccc(Br)cc2)C1 (stereo unspecified)
Key: Criterion not met

Exercise: Is the recorded value of inhibition equal to or greater than 30% for this molecule? O=C(NNC(=O)C1CCN(c2ncccn2)CC1)c1ccc(F)cc1
Key: Criterion not met

Exercise: Is the recorded value of inhibition equal to or greater than 30% for this molecule? O=[N+]([O-])c1ccc(Nc2nc(NC3CCCCC3)nc(N3CCCC3)n2)cc1
Key: Criterion not met

Exercise: Is the recorded value of inhibition equal to or greater than 30% for this molecule? O=C(CSc1nc2ccc(Cl)cc2[nH]1)NCCc1ccccc1
Key: Criterion not met

Exercise: Is the recorded value of inhibition equal to or greater than 30% for this molecule? COc1cccc(N2[C@@H](CC(C)=O)c3ccc(/C=C/C(C)=O)cc3S2(=O)=O)c1
Key: Criterion not met
